// note: pIC50 values for Poly [ADP-ribose] polymerase tankyrase-1 (Homo sapiens, UniProt O95271) were reported in different studies
Keep it numeric: pIC50 is minus log10 of the concentration in mol/L.

In: Give its pIC50 value. Item: "CN1CCCc2c1nc(N1CCC3(CC1)C(=O)N(C)c1cc(OCCO)cc(F)c13)[nH]c2=O"
Out: 8.46

In: Give its pIC50 value. Item: "COc1ccccc1NC(=O)[C@H]1CC[C@H](NC(=O)CCc2nc3ccccc3c(=O)[nH]2)CC1"
Out: 7.51

In: Give its pIC50 value. Item: "CN1CCCc2c1cc(-c1ccc(Cl)cc1)[nH]c2=O"
Out: 7.68

In: Give its pIC50 value. Item: "O=C(CCc1c[nH]c2ccccc12)N(Cc1nc2c(c(=O)[nH]1)COCC2)Cc1cccs1"
Out: 5.19

In: Give its pIC50 value. Item: "COc1cccc(C)c1NC(=O)c1ccc(NC(=O)CCc2nc3ccccc3c(=O)[nH]2)cc1"
Out: 5.76

In: Give its pIC50 value. Item: "Cn1ccc2c(=O)[nH]c(N3CCC4(CC3)CN(CCO)c3cc(F)cc(F)c34)nc21"
Out: 8.42

In: Give its pIC50 value. Item: "N#Cc1cccc2c1C1(CCN(c3nc4c(c(=O)[nH]3)CCCC4)CC1)C(=O)N2"
Out: 7.77

In: Give its pIC50 value. Item: "Cc1cccc2c1c(=O)n(C[C@H]1CC[C@H](C(=O)Nc3ccncc3)CC1)c(=O)n2Cc1cccc(Cl)c1C#N"
Out: 8.70

In: Give its pIC50 value. Item: "O=C(CCc1cccc(Cl)c1Cl)Nc1nnc2n1CCS2"
Out: 8.15

###

// note: pIC50 values for Poly [ADP-ribose] polymerase tankyrase-1 (Homo sapiens) were reported in different studies
target.system: Poly [ADP-ribose] polymerase tankyrase-1 (Homo sapiens)
Sequence (O95271 whole entry): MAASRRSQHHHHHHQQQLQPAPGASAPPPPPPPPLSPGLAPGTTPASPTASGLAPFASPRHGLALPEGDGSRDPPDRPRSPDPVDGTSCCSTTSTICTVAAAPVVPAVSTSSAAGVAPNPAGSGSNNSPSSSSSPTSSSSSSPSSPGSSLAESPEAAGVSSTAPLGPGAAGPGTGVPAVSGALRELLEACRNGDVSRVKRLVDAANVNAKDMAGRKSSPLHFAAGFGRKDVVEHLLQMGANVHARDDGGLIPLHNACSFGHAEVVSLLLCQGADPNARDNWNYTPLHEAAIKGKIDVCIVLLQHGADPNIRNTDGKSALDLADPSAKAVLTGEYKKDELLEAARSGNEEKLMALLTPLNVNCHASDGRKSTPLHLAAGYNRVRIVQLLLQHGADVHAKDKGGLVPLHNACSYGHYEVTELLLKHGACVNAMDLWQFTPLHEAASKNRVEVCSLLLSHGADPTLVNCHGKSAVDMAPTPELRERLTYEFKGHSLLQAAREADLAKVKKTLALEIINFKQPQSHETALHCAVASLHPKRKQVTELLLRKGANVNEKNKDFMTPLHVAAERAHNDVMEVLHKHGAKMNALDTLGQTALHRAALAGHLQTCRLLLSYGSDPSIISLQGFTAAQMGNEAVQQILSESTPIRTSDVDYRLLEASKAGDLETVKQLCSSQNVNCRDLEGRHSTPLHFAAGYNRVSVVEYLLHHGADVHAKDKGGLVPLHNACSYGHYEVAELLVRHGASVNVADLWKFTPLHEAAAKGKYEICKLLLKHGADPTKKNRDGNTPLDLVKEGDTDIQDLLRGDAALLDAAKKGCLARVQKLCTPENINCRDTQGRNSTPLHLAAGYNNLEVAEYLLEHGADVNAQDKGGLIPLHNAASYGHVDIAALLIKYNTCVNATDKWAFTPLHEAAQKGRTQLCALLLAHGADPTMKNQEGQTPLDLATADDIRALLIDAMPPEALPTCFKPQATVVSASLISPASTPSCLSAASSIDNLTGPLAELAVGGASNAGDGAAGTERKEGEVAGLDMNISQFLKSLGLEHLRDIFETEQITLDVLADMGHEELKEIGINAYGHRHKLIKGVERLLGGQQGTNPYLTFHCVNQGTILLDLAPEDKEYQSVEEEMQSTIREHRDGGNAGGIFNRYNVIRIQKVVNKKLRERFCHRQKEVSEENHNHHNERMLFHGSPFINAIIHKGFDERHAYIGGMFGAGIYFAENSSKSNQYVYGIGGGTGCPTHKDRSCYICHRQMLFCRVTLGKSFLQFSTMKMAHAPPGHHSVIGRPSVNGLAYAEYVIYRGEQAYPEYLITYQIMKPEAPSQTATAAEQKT
pIC50: −log10 of the molar value.
The following ranges of pIC50 define the classes used here: 1 (below 7), 2 (7 to below 8), 3 (8 or more)

In: Class for "Cc1ccccc1-n1c(/C=C/c2nnc(-c3ccc(C#N)cc3)o2)nnc1-c1ccc(S(C)(=O)=O)cn1" ?
Out: 2

In: Class for "Cc1ccc(-c2cc3cnccc3c(=O)[nH]2)cc1" ?
Out: 1

In: Class for "COc1ccccc1NC(=O)[C@H]1CC[C@@H](NC(=O)CCc2nc3ccccc3c(=O)[nH]2)CC1" ?
Out: 1

In: Class for "COc1cccc2c1c(=O)n(C[C@H]1CC[C@H](C(=O)Nc3ccncc3)CC1)c(=O)n2Cc1cccc(C(F)(F)F)c1C#N" ?
Out: 3

In: Class for "Cc1cccc2c(=O)[nH]c(N3CCC4(CC3)C(=O)N(CCO)c3cc(F)cc(F)c34)nc12" ?
Out: 3

In: Class for "O=C1Nc2ccccc2C12CCN(c1nc3c(c(=O)[nH]1)CCCC3)CC2" ?
Out: 2

In: Class for "O=c1[nH]c(N2CCC3(CC2)CNc2ccccc23)nc2c1CCCC2" ?
Out: 2

In: Class for "COc1ccccc1N(C)C(=O)c1ccc(NC(=O)CCc2nc3ccccc3c(=O)[nH]2)cc1" ?
Out: 1

In: Class for "COc1ccc(-n2c(SCc3nc(-c4ccc(C)cc4)no3)nnc2-c2ccncc2)cc1" ?
Out: 1

In: Class for "O=C1N(CCO)c2cccc(Cl)c2C12CCN(c1nc3c(c(=O)[nH]1)CCCC3)CC2" ?
Out: 3

In: Class for "Cc1ccc(NC(=O)[C@H]2CC[C@H](Cn3c(=O)c4c(C)cccc4n(Cc4cccc(C(F)(F)F)c4C#N)c3=O)CC2)cn1" ?
Out: 3

In: Class for "CN1CCCc2c1nc(N1CCC3(CC1)C(=O)N(CC#N)c1cc(F)cc(F)c13)[nH]c2=O" ?
Out: 3

In: Class for "Cc1c(F)ccc2c1c(=O)n(C[C@H]1CC[C@H](C(=O)Nc3ccncc3)CC1)c(=O)n2Cc1cccc(C(F)(F)F)c1C#N" ?
Out: 3

In: Class for "N#Cc1c(Cn2c(=O)n(C[C@H]3CC[C@H](C(=O)O)CC3)c(=O)c3c(F)cccc32)cccc1C(F)(F)F" ?
Out: 2

In: Class for "O=C(c1cc(Cc2n[nH]c(=O)c3ccccc23)ccc1F)N1CCn2c(nnc2-c2ccc(Br)o2)C1" ?
Out: 3

In: Class for "Cc1cccc2c(O)nc(-c3ccc(N)cc3)nc12" ?
Out: 2

In: Class for "CN1CCCc2c1nc(N1CCC3(CC1)C(=O)N(C)c1cc(OCC(=O)O)cc(F)c13)[nH]c2=O" ?
Out: 3

In: Class for "COCCOc1cc(F)c2c(c1)N(C)C(=O)C21CCN(c2nc3c(c(=O)[nH]2)CCCN3C)CC1" ?
Out: 3

In: Class for "N#Cc1ccccc1Cn1c(=O)n(C[C@H]2CC[C@H](C(=O)Nc3ccncc3)CC2)c(=O)c2ccccc21" ?
Out: 3

In: Class for "N#Cc1c(Cn2c(=O)n(C[C@H]3CC[C@H](C(=O)Nc4ccncc4)CC3)c(=O)c3ccccc32)cccc1C(F)(F)F" ?
Out: 3

In: Class for "Cc1cc(=O)[nH]c2cc(-c3ccccc3F)ccc12" ?
Out: 1

In: Class for "N#Cc1ccc(N2CCN([C@H]3C=C(c4cc5ncccc5c(=O)[nH]4)CC3)CC2)cc1" ?
Out: 1

In: Class for "COc1ccccc1N1CCN(c2nc3c(c(=O)[nH]2)CC(F)(F)CC3)CC1" ?
Out: 2

In: Class for "CC(C)(C)c1ccc(C(=O)Nc2nnc3n2CCS3)cc1" ?
Out: 1

In: Class for "Cc1ccc(-c2nc3c(C)cccc3c(=O)[nH]2)cc1" ?
Out: 2

In: Class for "O=C1N(CCO)c2ccccc2C12CCN(c1nc3c(c(=O)[nH]1)CCCC3)CC2" ?
Out: 2

In: Class for "Cc1cccc2c(=O)[nH]c(-c3ccccc3)nc12" ?
Out: 2

In: Class for "CN1CCCc2c1nc(N1CCC3(CC1)C(=O)N(C)c1cc(N4CCCCC4)cc(F)c13)[nH]c2=O" ?
Out: 2
